Tested on: HeLa Kyoto;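 note: HeLa Kyoto cells arrested at G1/S by double thymidine block, proteins quantified by TMT10plex mass spectrometry in mild NP-40 versus SDS extracts, three biological replicates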
Assay: solubility in G1/S (NP-40 vs SDS abundance) (log2 ratio); higher = more soluble
Conditions: cell cycle stage: G1/S
Record form. Attribute: solubility in G1/S (log2). Fill in for each entry.
Numbers only.

# sequence code, solubility in G1/S (log2)
rows = [
    ("MSSASGLRRGHPAGGEENMTETDAFYKREMFDPAEKYKMDHRRRGIALIFNHERFFWHLTLPERRGTCADRDNLTRRFSDLGFEVKCFNDLKAEELLLKIHEVSTVSHADADCFVCVFLSHGEGNHIYAYDAKIEIQTLTGLFKGDKCHSLVGKPKIFIIQACRGNQHDVPVIPLDVVDNQTEKLDTNITEVDAASVYTLPAGADFLMCYSVAEGYYSHRETVNGSWYIQDLCEMLGKYGSSLEFTELLTLVNRKVSQRRVDFCKDPSAIGKKQVPCFASMLTKKLHFFPKSN [CASP6]", -0.374),
    ("MASLDRVKVLVLGDSGVGKSSLVHLLCQNQVLGNPSWTVGCSVDVRVHDYKEGTPEEKTYYIELWDVGGSVGSASSVKSTRAVFYNSVNGIIFVHDLTNKKSSQNLRRWSLEALNRDLVPTGVLVTNGDYDQEQFADNQIPLLVIGTKLDQIHETKRHEVLTRTAFLAEDFNPEEINLDCTNPRYLAAGSSNAVKLSRFFDKVIEKRYFLREGNQIPGFPDRKRFGAGTLKSLHYD [RABL3]", 0.0735),
    ("MAAAVAAAPGALGSLHAGGARLVAACSAWLCPGLRLPGSLAGRRAGPAIWAQGWVPAAGGPAPKRGYSSEMKTEDELRVRHLEEENRGIVVLGINRAYGKNSLSKNLIKMLSKAVDALKSDKKVRTIIIRSEVPGIFCAGADLKERAKMSSSEVGPFVSKIRAVINDIANLPVPTIAAIDGLALGGGLELALACDIRVAASSAKMGLVETKLAIIPGGGGTQRLPRAIGMSLAKELIFSARVLDGKEAKAVGLISHVLEQNQEGDAAYRKALDLAREFLPQGPVAMRVAKLAINQGMEVDLVTGLAIEEACYAQTIPTKDRLEGLLAFKEKRPPRYKGE [AUH]", 0.261),
    ("MAAAMVPGRSESWERGEPGRPALYFCGSIRGGREDRTLYERIVSRLRRFGTVLTEHVAAAELGARGEEAAGGDRLIHEQDLEWLQQADVVVAEVTQPSLGVGYELGRAVAFNKRILCLFRPQSGRVLSAMIRGAADGSRFQVWDYEEGEVEALLDRYFEADPPGQVAASPDPTT [DNPH1]", 0.392),
]

Record solubility in G1/S (log2) per entry; entries follow.
1. MYHNSSQKRHWTFSSEEQLARLRADANRKFRCKAVANGKVLPNDPVFLEPHEEMTLCKYYEKRLLEFCSVFKPAMPRSVVGTACMYFKRFYLNNSVMEYHPRIIMLTCAFLACKVDEFNVSSPQFVGNLRESPLGQEKALEQILEYELLLIQQLNFHLIVHNPYRPFEGFLIDLKTRYPILENPEILRKTADDFLNRIALTDAYLLYTPSQIALTAILSSASRAGITMESYLSESLMLKENRTCLSQLLDIMKSMRNLVKKYEPPRSEEVAVLKQKLERCHSAELALNVITKKRKGYEDDDYVSKKSKHEEEEWTDDDLVESL [CCNH]
2. MPNFSGNWKIIRSENFEELLKVLGVNVMLRKIAVAAASKPAVEIKQEGDTFYIKTSTTVRTTEINFKVGEEFEEQTVDGRPCKSLVKWESENKMVCEQKLLKGEGPKTSWTRELTNDGELILTMTADDVVCTRVYVRE [CRABP2]

Response line:
1: 0.259; 2: -0.0816
